- experimental system: human CB2 receptors (Homo sapiens (Human), UniProt P34972)
- Sequence (P34972 whole entry): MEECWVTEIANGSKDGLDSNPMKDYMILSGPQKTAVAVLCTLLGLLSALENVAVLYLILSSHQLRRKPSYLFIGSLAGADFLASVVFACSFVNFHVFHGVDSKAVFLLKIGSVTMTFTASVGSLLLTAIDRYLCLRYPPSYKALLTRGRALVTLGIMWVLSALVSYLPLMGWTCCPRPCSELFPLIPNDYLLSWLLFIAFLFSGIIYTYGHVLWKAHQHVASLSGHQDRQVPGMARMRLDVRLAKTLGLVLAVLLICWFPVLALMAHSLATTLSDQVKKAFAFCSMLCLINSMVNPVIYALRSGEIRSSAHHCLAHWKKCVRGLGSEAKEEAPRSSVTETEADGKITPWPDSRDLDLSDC
- protocol text: functional cAMP assay, CHO cells expressing human CB2
- Format: cell-based
- stated conditions: read-out: Human CB2 EC50
quantity kind: EC50 (nM)
The response must be a number in nM with no trailing unit.

The examples below pair each entry with its known result.
compound | EC50 (nM)
Cc1nc(C(C)(CS(C)(=O)=O)NC(=O)c2cc(OC(C)CF)c(C3CC3)cn2)no1 (single isomer, unassigned) [Example 298] | 57.9
CC(C)(C)C(NC(=O)c1cc(OCC(F)(F)F)c(N2CC(F)(F)C2)cn1)C(N)=O (centres unmarked) | 13.2
O=C(NC1(c2ncco2)COC1)c1cc(OCC2CC2)c(Cl)cn1 | 51.7
CCC[C@@](C)(CO)NC(=O)c1cc(OCC2CC2)c(Cl)cn1 | 16.7
Cc1nc(C(C)(CC2CC2)NC(=O)c2cc(O[C@@H](C)C(F)(F)F)c(C3CCC3)cn2)no1 (some centres unmarked) [Example 121] | 0.6

**Q:** Notebook: pull reported EC50 for human CB2 receptors (Homo sapiens (Human), UniProt P34972), entry Cc1csc(C2(NC(=O)c3cc(OCC(F)(F)F)c(C4CC4)cn3)CCOCC2)n1
**A:** 185

**Q:** Try this compound too: Cc1nc(C(C)(CC2CC2)NC(=O)c2cc(OCC(F)(F)F)c(Cl)cn2)no1 (centres unmarked)
**A:** 48.3

**Q:** Same for C[C@H](Oc1cc(C(=O)NC(C(=O)N2CC(F)(F)C2)C(C)(C)C)ncc1C1CC1)C(F)(F)F (some centres unmarked)
**A:** 5.1

###

- experimental system: human CB2 receptors (Homo sapiens (Human))
- protocol text: functional cAMP assay, CHO cells expressing human CB2
- Assay type: cell-based
- stated conditions: read-out: Human CB2 EC50
pEC50 values for the molecules below.
Quick note: pEC50 means taking -log10 of the concentration in moles per liter.

See these solved cases before continuing.
molecule | pEC50
C[C@H](Oc1cc(C(=O)NC(C(N)=O)C(C)(C)C)ncc1C1CC1)C(F)(F)F (some centres unmarked) [Example 199] | 8.11
CC(C)[C@](C)(CO)NC(=O)c1cc(OCC2CCC2)c(Cl)cn1 | 8.04
C[C@H](Oc1cc(C(=O)NC(C(N)=O)C(C)(C)C)ncc1C1CC1)C(F)(F)F (some centres unmarked) [Example 240] | 7.26
Cc1nc(C(C)(CC2CC2)NC(=O)c2cc(OC(C)CF)c(C3CC3)cn2)no1 (single isomer, unassigned) [Example 289] | 9.00
CNC(=O)C(NC(=O)c1cc(OCC(F)(F)F)c(C2CC2)cn1)C(C)(C)F (centres unmarked) | 7.77

**Q:** Entry CC(CC(N)=O)(NC(=O)c1cc(OCC(F)(F)F)c(C2CC2)cn1)C1CC1 (centres unmarked) has what pEC50?
**A:** 9.05

**Q:** Request: CC(C)(C)C(NC(=O)c1cc(OCC2CC2)c(N2CC(F)(F)C2)cn1)C(N)=O (centres unmarked)
**A:** 8.52

**Q:** Input C[C@H](Oc1cc(C(=O)NC(C)(C#N)CC2CC2)ncc1C1(F)COC1)C(F)(F)F (some centres unmarked)
**A:** 6.61

###

- experimental system: UniProtKB P34972
- protocol text: functional cAMP assay, CHO cells expressing human CB2
- Type: cell-based
- stated conditions: Human CB2 EC50 (uM)
quantity kind: log10 of EC50 (log10 of the value in µM)
Log scale reminder: EC50 in µM, then log10 taken.

Reference set, count: 5
compound | quantitative readout
Cc1nc(C(C)(CC2CC2)NC(=O)c2cc(OC(C)CF)c(C3CC3)cn2)no1 (single isomer, unassigned) [Example 287] | -2.85
CC(CC(N)=O)(NC(=O)c1cc(OCC(F)(F)F)c(C2(F)CCC2)cn1)C1CC1 (single isomer, unassigned) [Example 310] | -1.81
Cc1nnc(C(C)(CC2CC2)NC(=O)c2cc(OCC(F)(F)F)c(C3CC3)cn2)o1 (single isomer, unassigned) [Example 185] | -1.52
Cc1nc(C(C)(CC2CC2)NC(=O)c2cc(OCCF)c(C3CC3)cn2)no1 (single isomer, unassigned) [Example 157] | -2.44
Cc1nc(C(C)(NC(=O)c2cc(OCC(F)(F)F)c(C3(F)COC3)cn2)C2CC2)no1 (single isomer, unassigned) [Example 166] | -0.51

**Q:** Give the measured log10 of EC50 of Cc1nc(C(C)(NC(=O)c2cc(OCC(F)(F)F)c(C3(F)CCC3)cn2)C2CC2)no1 (single isomer, unassigned) [Example 307] .
**A:** -2.47

**Q:** Query CC(CC(N)=O)(NC(=O)c1cc(OCC(F)(F)F)c(N2CC(F)(F)C2)cn1)C1CC1 (single isomer, unassigned) [Example 276] next
**A:** -0.86

**Q:** Now the same for CNC(=O)CC(C)(NC(=O)c1cc(OCC(F)(F)F)c(C2CC2)cn1)C1CC1 (single isomer, unassigned) [Example 241]
**A:** -1.92

###

- experimental system: human CB2 receptors (Homo sapiens (Human), UniProt P34972)
- protocol text: functional cAMP assay, CHO cells expressing human CB2
- Format: cell-based
- stated conditions: read-out: Human CB2 EC50
Listed here are molecules together with their documented log10 EC50.
Short version: log10 scale, EC50, nM.

Below: 3 molecules and their reported log10 EC50.
molecule | quantity kind | quantitative readout
CC(C)(C#N)NC(=O)c1cc(OCC2CC2)c(Cl)cn1 [Example 8] | log10 EC50 | 2.20
NC(=O)[C@H](CC1CC1)NC(=O)c1cc(OCC2CC2)c(Cl)cn1 [Example 4] | log10 EC50 | 2.06
CC(C)[C@](C)(CO)NC(=O)c1cc(OCC2CC2)c(Cl)cn1 [Example 14] | log10 EC50 | 1.11

**Q:** Query (molecule): CNC(=O)CC(C)(NC(=O)c1cc(O[C@@H](C)C(F)(F)F)c(C2CC2)cn1)C1CC1 (some centres unmarked) [Example 247] ; field requested: log10 EC50
**A:** 1.29

**Q:** And for NC(=O)CC1(NC(=O)c2cc(OCC3CC3)c(N3CC(F)(F)C3)cn2)CS(=O)(=O)C1 [Example 267] ?
**A:** 1.02

**Q:** How about O=C(NC1(CO)CCCCC1)c1cc(OCC(F)(F)F)c(C2CC2)cn1 [Example 55] ?
**A:** 1.20

**Q:** # iterate: CNC(=O)CC1(NC(=O)c2cc(OCC(F)(F)F)c(C3CC3)cn2)CS(=O)(=O)C1 [Example 282]
**A:** 2.82

**Q:** Moving on to the next molecule: CNC(=O)C(NC(=O)c1cc(O[C@@H](C)C(F)(F)F)c(C2CC2)cn1)C(C)(C)O (some centres unmarked) [Example 252]
**A:** 2.54

###

- experimental system: human CB2 receptors (Homo sapiens (Human))
- protocol text: functional cAMP assay, CHO cells expressing human CB2
- Assay type: cell-based
- stated conditions: read-out: Human CB2 EC50
quantity kind: EC50 (nM)
Dear colleague, please return just the value in nM, with no unit written.

Examples from the recorded data:
compound | quantitative readout
Cc1nc(C(C)(NC(=O)c2cc(O[C@H](C)C(F)(F)F)c(C3CC3)cn2)C2CC2)no1 (single isomer, unassigned; epimer a) [Example 72] | 2.7
Cc1nc(C(C)(CS(C)(=O)=O)NC(=O)c2cc(OCC(F)(F)F)c(C3CC3)cn2)no1 (stereo not shown) | 48.8
NC(=O)CC1(NC(=O)c2cc(OCC(F)(F)F)c(N3CC(F)(F)C3)cn2)CS(=O)(=O)C1 | 178

Next compound, please.
**Q:** Could you share which EC50 value was measured for C[C@H](Oc1cc(C(=O)NC(c2noc(N)n2)C(C)(C)C)ncc1C1CC1)C(F)(F)F (stereo partly shown) [Example 213] ?
**A:** 11.1

###

Entries and their EC50
- experimental system: UniProtKB P34972
- protocol text: functional cAMP assay, CHO cells expressing human CB2
- Assay type: cell-based
- stated conditions: read-out: Human CB2 EC50
I only need the number, in nM, no unit after it.

molecule | EC50 (nM)
Cc1nc(C(C)(CS(C)(=O)=O)NC(=O)c2cc(O[C@@H](C)C(F)(F)F)c(C3(O)CCC3)cn2)no1 (stereo partly shown) | 219
Cc1nc(C(C)(CO)NC(=O)c2cc(OCC(F)(F)F)c(C3CC3)cn2)no1 (stereo not shown) | 263
Cc1nc(C(C)(NC(=O)c2cc(O[C@@H](C)C(F)(F)F)c(C3(F)COC3)cn2)C2CC2)no1 (stereo partly shown) [Example 169] | 5.5

API: the following record is the query input.
**Q:** For the molecule shown here, CNC(=O)CC1(NC(=O)c2cc(OCC(F)(F)F)c(C3(F)CCC3)cn2)CS(=O)(=O)C1 , give the reported EC50.
**A:** 1440

src = patent US9409866B2
